- tested-system: BCL-XL (Homo sapiens, UniProt Q07817)
- Construct: endogenous in cells; host or cells: MOLT-4
- Sequence (Q07817 whole entry): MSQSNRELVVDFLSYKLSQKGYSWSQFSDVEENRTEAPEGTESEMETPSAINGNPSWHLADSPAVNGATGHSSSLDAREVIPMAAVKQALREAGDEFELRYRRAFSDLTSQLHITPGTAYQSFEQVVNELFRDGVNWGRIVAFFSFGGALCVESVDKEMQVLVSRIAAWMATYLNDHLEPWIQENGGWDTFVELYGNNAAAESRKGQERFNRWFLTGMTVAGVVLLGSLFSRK
- assay-explanation: Bcl-xL ELISA degradation in MOLT-4 cells, 6 h
- Assay type: cell-based
- experimental-context: read-out: Bcl-xL ELISA in MOLT-4 degradation 6 h: Mean external-Abs DC50
Quick list: DC50 per entry.

Known results for compounds:
>>> value_reported("Cc1ncsc1-c1ccc(CNC(=O)[C@@H]2C[C@@H](O)CN2C(=O)[C@@H](NC(=O)CCCCCC(=O)N2CCN(CC[C@H](CSc3ccccc3)Nc3ccc(S(=O)(=O)NC(=O)c4ccc(N5CCN(CC6=C(c7ccc(Cl)cc7)CCC(C)(C)C6)CC5)cc4)cc3S(=O)(=O)C(F)(F)F)CC2)C(C)(C)C)cc1 [I-389]")
"> 1000 nM"
>>> value_reported("Cc1ncsc1-c1ccc([C@H](C)NC(=O)[C@@H]2C[C@@H](O)CN2C(=O)[C@@H](NC(=O)C2CCN(c3ccc(S(=O)(=O)NC(=O)c4nc(N5CCCc6c5nnc(Nc5nc7ccccc7s5)c6C)ccc4-c4cnn(CC5CCCCC5)c4C)cc3)CC2)C(C)(C)C)cc1 [I-310]")
"10 to 100 nM"
>>> value_reported("Cc1ncsc1-c1ccc([C@H](C)NC(=O)[C@@H]2C[C@@H](O)CN2C(=O)[C@@H](NC(=O)C2CCN(c3ccc(S(=O)(=O)NC(=O)c4nc(N5CCc6cccc(C(=O)Nc7nc8ccccc8s7)c6C5)ccc4-c4cnn(CC(C)C)c4C)cc3)CC2)C(C)(C)C)cc1 [I-240]")
"10 to 100 nM"

Next, consider the following compound.
In: Item under review: Cc1ncsc1-c1ccc(CNC(=O)[C@@H]2C[C@@H](O)CN2C(=O)[C@@H](NC(=O)[C@@H]2CCN(c3ccc(S(=O)(=O)NC(=O)c4nc(N5CCc6cccc(C(=O)Nc7nc8ccccc8s7)c6C5)ccc4-c4cnn(CC5CCCCC5)c4C)cc3)C2)C(C)(C)C)cc1 [I-410] . Reported DC50?
Out: 10 to 100 nM

---

# Lookup of reported DC50 keyed by entry
- tested-system: BCL-XL (Homo sapiens)
- Construct: endogenous in cells; host or cells: MOLT-4
- assay-explanation: Bcl-xL ELISA degradation in MOLT-4 cells, 6 h
- Format: cell-based
- experimental-context: read-out: Bcl-xL ELISA in MOLT-4 degradation 6 h: Mean external-Abs DC50

>>> value_reported("Cc1ncsc1-c1ccc(CNC(=O)[C@@H]2C[C@@H](O)CN2C(=O)[C@@H](NC(=O)CCc2ccc(S(=O)(=O)NC(=O)c3nc(N4CCc5cccc(C(=O)Nc6nc7ccccc7s6)c5C4)ccc3-c3cnn(CC4CCCCC4)c3C)c(F)c2)C(C)(C)C)cc1")
"100 to 500 nM"

Attention now shifts to the item below.
In: # DC50 lookup, item Cc1ncsc1-c1ccc(CNC(=O)[C@@H]2C[C@@H](O)CN2C(=O)[C@@H](NC(=O)[C@H]2CCN(c3ccc(S(=O)(=O)NC(=O)c4nc(N5CCc6cccc(C(=O)Nc7nc8ccccc8s7)c6C5)ccc4-c4cnn(CC5CCCCC5)c4C)cc3)C2)C(C)(C)C)cc1
Out: < 10 nM

---

- tested-system: BCL-XL (Homo sapiens, UniProt Q07817)
- Construct: endogenous in cells; host or cells: MOLT-4
- assay-explanation: Bcl-xL ELISA degradation in MOLT-4 cells, 6 h
- Format: cell-based
- experimental-context: read-out: Bcl-xL ELISA in MOLT-4 degradation 6 h: Mean external-Abs DC50
This section presents compounds with their documented DC50 values.

As a guide, the following entries are already answered.
>>> value_reported("Cc1ncsc1-c1ccc([C@H](CO)NC(=O)[C@@H]2C[C@@H](O)CN2C(=O)[C@@H](NC(=O)CCNCCS(=O)(=O)NC(=O)c2nc(N3CCc4cccc(C(=O)Nc5nc6cccnc6s5)c4C3)ccc2-c2cnn(CC3CCCCC3)c2C)C(C)(C)C)cc1")
"< 10 nM"
>>> value_reported("C#Cc1ccc([C@H](CO)NC(=O)[C@@H]2C[C@@H](O)CN2C(=O)[C@@H](NC(=O)CCNCCS(=O)(=O)NC(=O)c2nc(N3CCc4cccc(C(=O)Nc5nc6cccnc6s5)c4C3)ccc2-c2cnn(CC(C)C)c2C)C(C)(C)C)cc1")
"> 1000 nM"
>>> value_reported("COc1nn(C)c2ccc([C@H](C)NC(=O)[C@@H]3C[C@@H](O)CN3C(=O)[C@@H](NC(=O)CCCCCS(=O)(=O)NC(=O)c3nc(N4CCc5cccc(C(=O)Nc6nc7cccnc7s6)c5C4)ccc3-c3cnn(CC4CCCCC4)c3C)C(C)(C)C)cc12")
"10 to 100 nM"

Consider the additional compound presented here.
In: # input compound: C#Cc1ccc([C@H](C)NC(=O)[C@@H]2C[C@@H](O)CN2C(=O)[C@@H](NC(=O)C2CN(c3ccc(S(=O)(=O)NC(=O)c4nc(N(C)c5cc(C)c(Nc6nc7ccccc7s6)nn5)ccc4-c4cnn(CC56CC7CC(CC(C7)C5)C6)c4C)cc3)C2)C(C)(C)C)cc1 ; wanted: its DC50
Out: < 10 nM

---

- tested-system: BCL-XL (Homo sapiens, UniProt Q07817)
- Construct: endogenous in cells; host or cells: MOLT-4
- assay-explanation: BCL-XL degradation assay, western blot in MOLT-4 cells, 16 h
- Format: cell-based
- experimental-context: western blot, MOLT-4 cells, 16 h; read-out: Bcl-xL WB in MOLT-4 degradation 16 h: Mean external-Abs DC50
quantity-kind: DC50

As a guide, the following entries are already answered.
>>> value_reported("Cc1ncsc1-c1ccc(CNC(=O)[C@@H]2C[C@@H](O)CN2C(=O)[C@@H](NC(=O)C2(F)CC2)C(C)(C)C)c(O[C@H]2CC[C@H](C(=O)N3CCN(CC[C@H](CSc4ccccc4)Nc4ccc(S(=O)(=O)NC(=O)c5ccc(N6CCN(CC7=C(c8ccc(Cl)cc8)CCC(C)(C)C7)CC6)cc5)cc4S(=O)(=O)C(F)(F)F)CC3)CC2)c1")
"> 1000 nM"
>>> value_reported("Cc1ncsc1-c1ccc([C@H](C)NC(=O)[C@@H]2C[C@@H](O)CN2C(=O)[C@@H](NC(=O)CCCNC(=O)CCC2(Cn3ncc(-c4ccc(N5CCc6cccc(C(=O)Nc7nc8ccccc8s7)c6C5)nc4C(=O)O)c3C)CCCCC2)C(C)(C)C)cc1")
"100 to 500 nM"
>>> value_reported("Cc1ncsc1-c1ccc(CNC(=O)[C@@H]2C[C@@H](O)CN2C(=O)[C@@H](NC(=O)C2(F)CC2)C(C)(C)C)c(OCCCCNC(=O)c2nc(N3CCc4cccc(C(=O)Nc5nc6ccccc6s5)c4C3)ccc2-c2cnn(CC3CCCCC3)c2C)c1")
"500 to 1000 nM"

Would you kindly look at the next entry?
In: Recorded DC50 for Cc1ncsc1-c1ccc([C@H](C)NC(=O)[C@@H]2C[C@@H](O)CN2C(=O)[C@@H](NC(=O)CCCCCCCS(=O)(=O)NC(=O)c2nc(N3CCc4cccc(C(=O)Nc5nc6ncccc6s5)c4C3)ccc2-c2cnn(CC34CC5CC(CC(C5)C3)C4)c2C)C(C)(C)C)cc1 , please?
Out: < 10 nM

---

- tested-system: BCL-XL (Homo sapiens, UniProt Q07817)
- Construct: endogenous in cells; host or cells: MOLT-4
- assay-explanation: Bcl-xL ELISA degradation in MOLT-4 cells, 6 h
- Assay type: cell-based
quantity-kind: Dmax

>>> value_reported("Cc1ncsc1-c1ccc([C@H](C)NC(=O)[C@@H]2C[C@@H](O)CN2C(=O)[C@@H](NC(=O)C2CCN(CCS(=O)(=O)NC(=O)c3nc(N4CCc5cccc(C(=O)Nc6nc7ccccc7s6)c5C4)ccc3-c3cnn(CC4CCCCC4)c3C)CC2)C(C)(C)C)cc1")
"> 75%"

In: Identify the measured Dmax of Cc1ncsc1-c1ccc(CNC(=O)[C@@H]2C[C@@H](O)CN2C(=O)[C@@H](NC(=O)C2CN(CCCS(=O)(=O)NC(=O)c3nc(N4CCc5cccc(C(=O)Nc6nc7ccccc7s6)c5C4)ccc3-c3cnn(CC4CCCCC4)c3C)C2)C(C)(C)C)cc1 for BCL-XL (Homo sapiens, UniProt Q07817).
Out: > 75%

---

- tested-system: BCL-XL (Homo sapiens, UniProt Q07817)
- Construct: endogenous in cells; host or cells: MOLT-4
- assay-explanation: Bcl-xL ELISA degradation in MOLT-4 cells, 6 h
- Assay type: cell-based
- experimental-context: read-out: Bcl-xL ELISA in MOLT-4 degradation 6 h: Mean external-Abs DC50
Entries and their measured DC50 follow.

>>> value_reported("Cc1ncsc1-c1ccc([C@H](C)NC(=O)[C@@H]2C[C@@H](O)CN2C(=O)[C@@H](NC(=O)C2CCN(c3ccc(S(=O)(=O)NC(=O)c4nc(N5CCc6cccc(C(=O)Nc7nc8ccccc8s7)c6C5)ccc4-c4cnn(CC5CCCCC5)c4C)cc3)C(=O)C2)C(C)(C)C)cc1 (stereo partly shown) [I-299]")
"0.1 to 0.5 µM"
>>> value_reported("Cc1cc([C@@H](C(=O)N2C[C@H](O)C[C@H]2C(=O)NCc2ccc(-c3scnc3C)cc2OCCN2CCN(C(=O)c3nc(N4CCc5cccc(C(=O)Nc6nc7ccccc7s6)c5C4)ccc3-c3cnn(CC4CCCCC4)c3C)CC2)C(C)C)on1 [I-267]")
"> 1 µM"
>>> value_reported("Cc1cc(N(C)c2ccc(-c3cnn(CC4CCCCC4)c3C)c(C(=O)NS(=O)(=O)CCCCC(=O)N[C@H](C(=O)N3C[C@H](O)C[C@H]3C(=O)N[C@@H](C)c3ccc(-c4scnc4C)cc3)C(C)(C)C)n2)nnc1Nc1nc2ccccc2s1 [I-353]")
"0.1 to 0.5 µM"

In: Any idea what DC50 was measured for C#Cc1ccc(CNC(=O)[C@@H]2C[C@@H](O)CN2C(=O)[C@@H](c2cc(N3CCN(c4ccc(S(=O)(=O)NC(=O)c5nc(N6CCc7cccc(C(=O)Nc8nc9ccccc9s8)c7C6)ccc5-c5cnn(CC6CCCCC6)c5C)cc4)CC3)no2)C(C)C)c(OC)c1 [I-263] ?
Out: 0.01 to 0.1 µM
